Molecular target: T1, PSMA Fab (006 PSMA Fab) (biotinylated for capture on neutravidin plates (site not stated))
T1 construct: also called Anti-PSMA Fab
Assay: clonal phage ELISA on biotinylated PSMA Fab captured on neutravidin plates, anti-M13-HRP detection;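 further: crude clonal phage supernatants added to wells preincubated with PSMA antigen or with blocking buffer only (no wash between), briefly incubated, then washed before detecting bound phage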
Where no end group is shown, it is not given here.
The entries below are paired with their reported Phage binding ELISA signal, Anti-PSMA Fab.
Give the value as a plain number.

Solved cases (5 shown):
VGPWCIPDWMCDVV [Phage-2812] | 0.554
MMHWCTPPWMCEFS [Phage-2805] | 0.568
PMKWCTPPWMCSYS [Phage-2814] | 0.538
EAKWCTPPWMCSLV [Phage-2817] | 0.525
IDKWCVPAWMCSPA [Phage-2815] | 0.538

Challenge: Which Phage binding ELISA signal, Anti-PSMA Fab reading was recorded for the binder VKHVCMPEWMCYWS (cysteine pairing not given here; also: fused to pIII, displayed on bacteriophage) [Phage-2803] ?
Response given: 0.57

Challenge: Another binder to check: GATWCTPTWMCTGF [Phage-2806]
Response given: 0.566

Challenge: Note, next up: MDIWCKPRWMCEEY [Phage-2810]
Response given: 0.562
